tested on: NCI-H23 lung; experiment: NCI-60 one-dose screen, 48 h (100 = growth as untreated, 0 = no growth, -100 = all killed); details: 10 µM unless noted
The panel holds about 83,000 compounds, 20% with a hit somewhere; the sample as a whole holds those more often.
Answer each item with its documented growth.
One number for each entry, in %.

[
  {
    "query smiles": "COc1cc(C(=O)Nc2cc(OC)c3ccn(C)c3c2)cc2c1C[C@]1(C)CC[C@@H](O)C(C)(C)[C@H]1O2",
    "unit text": "%",
    "growth": 30.3
  },
  {
    "query smiles": "CNS(=O)(=O)c1cccc(-c2ccc3c4c(n(C)c(=O)c3c2)-c2ccccc2C4=O)c1",
    "unit text": "%",
    "growth": 43.9
  },
  {
    "query smiles": "CCCCc1ccc(N=Nc2ccc(OCC[N+](C)(C)C)cc2)cc1",
    "unit text": "%",
    "growth": 49.2
  },
  {
    "query smiles": "C=C(C)[C@@H]1CC[C@]2(C(=O)NCCCO)CC[C@]3(C)[C@H](CC[C@@H]4[C@@]5(C)CCCNC(C)(C)[C@@H]5CC[C@]43C)[C@@H]12",
    "unit text": "%",
    "growth": 77.3
  },
  {
    "query smiles": "COc1cc(-c2csc(NC(=O)Nc3ccc(C(F)(F)F)cc3)n2)cc(OC)c1OC",
    "unit text": "%",
    "growth": 2.62
  },
  {
    "query smiles": "CCCCc1n(Cc2ccc3ccccc3n2)cc[n+]1Cc1ccc2ccccc2c1",
    "unit text": "%",
    "growth": -1.01
  },
  {
    "query smiles": "COc1ccc2cc(/C=C3\\N=C(c4cc(OC)c(OC)c(OC)c4)OC3=O)c(OC)nc2c1",
    "unit text": "%",
    "growth": 101
  },
  {
    "query smiles": "CSc1nc(-c2ccc(F)cc2)c(C#N)c(N2CCOCC2)n1",
    "unit text": "%",
    "growth": 101
  }
]

We next turn to a different compound, shown below.
stdin: Which growth value belongs to CO[C@@]12C=C[C@@]34CCC(=O)N3c3ccccc3[C@@H](O1)C4C2 ?
stdout: 99.9

---

tested on: MALME-3M melanoma; assay: NCI-60 one-dose screen, 48 h (100 = growth as untreated, 0 = no growth, -100 = all killed); settings: 10 µM unless noted
Compounds without any hit were thinned out: in the full panel of roughly 83,000, 20% have a hit. Active and inactive are the calls of the source. Rule for the calls: active = growth percent below 10; inactive = the rest.
measured quantity: growth

[
  {
    "query smiles": "O=C(C[n+]1cccc2cc(Cl)ccc21)c1ccc2c(c1)CCCC2",
    "value measured": "-30.9% (active)"
  },
  {
    "query smiles": "COC(=O)/C=C1\\SC(=Nc2cccc(Cl)c2)N(CCc2c[nH]c3ccccc23)C1=O",
    "value measured": "45.9% (inactive)"
  },
  {
    "query smiles": "C=C(C)[C@@H]1CC[C@]2(C(=O)OCCCC[P+](c3ccccc3)(c3ccccc3)c3ccccc3)CC[C@]3(C)[C@H](CC[C@@H]4[C@@]5(C)CC[C@H](OC(=O)C(Cl)Cl)C(C)(C)[C@@H]5CC[C@]43C)[C@@H]12",
    "value measured": "-85.7% (active)"
  }
]

stdin: Which growth value belongs to Cc1cc(O)cc(O)c1N=NC1=NCCS1 ?
stdout: 94.3% (inactive)

---

Answer each item with its documented growth.
system: SNB-75 CNS; test: NCI-60 one-dose screen, 48 h (100 = growth as untreated, 0 = no growth, -100 = all killed); conditions: 10 µM unless noted
About 83,000 compounds went through this panel and 20% of them were active in at least one assay; those are over-represented in the sample as a whole.
Give bare numbers, in %.

[
  {
    "query smiles": "O=C(CN1N=C(c2ccc(F)cc2)CCC1=O)Nc1nc2ccccc2s1",
    "subject of test": "SNB-75 CNS",
    "growth (%)": -49.1
  }
]

For each of the compounds below, note its growth.
1. CN1CCN(CC#CCOC(=O)CNC(=O)[C@]23CCC(C)(C)C[C@H]2C2=CC[C@@H]4[C@@]5(C)CC[C@H](O)C(C)(C)[C@@H]5CC[C@@]4(C)[C@]2(C)CC3)CC1
2. CC1CCN(CCCCCOc2ccc3oc4ccccc4c(=O)c3c2)CC1
3. COc1ccc(-c2nnc(N3CCN(C(=O)CN4CCN(c5ccc(OC)cc5)CC4)CC3)nc2-c2ccc(OC)cc2)cc1

stdout:
[80.9, 84.7, 65.7]

---

tested on: TK-10 renal; test: NCI-60 one-dose screen, 48 h (100 = growth as untreated, 0 = no growth, -100 = all killed); conditions: 10 µM unless noted
The panel holds about 83,000 compounds, 20% with a hit somewhere; the sample as a whole holds those more often.
Label t for high-side growth (at or above 90%) and f for low-side growth (below it).

[
  {
    "molecule": "CCOc1ccccc1C(=O)/C=C/c1cc2ccccc2[nH]c1=O",
    "class": "f"
  },
  {
    "molecule": "COc1ccc2nc(-c3ccc(Cl)cc3)cc(C(=O)N3N=C(c4ccc(N)cc4)CC3c3ccccc3)c2c1 (centres undefined)",
    "class": "f"
  },
  {
    "molecule": "CCOCc1nc2ccccc2c(=O)[nH]1",
    "class": "t"
  },
  {
    "molecule": "O=c1[nH]c2ccccc2cc1-c1nc2ccc(Cl)cc2[nH]1",
    "class": "f"
  },
  {
    "molecule": "CC(=O)c1ccc(NC(=O)CSc2nnc(-c3cc(-c4ccc(Cl)cc4)nc4ccccc34)o2)cc1",
    "class": "f"
  }
]

stdin: # bool: growth of O=S(=O)(Nc1nccs1)c1ccc(Nc2nc(-c3ccncc3)cs2)cc1 >= 90%
stdout: t

stdin: # bool: growth of O=c1cc(/C=N\Nc2nc(-c3ccc(Cl)cc3Cl)cs2)c2cc(Cl)ccc2o1 >= 90%
stdout: t

stdin: # bool: growth of COc1cc(NCC(=O)Nc2cc(Nc3cccc(C(F)(F)F)c3)ncn2)c(Cl)c(OC)c1Cl >= 90%
stdout: t

stdin: # bool: growth of COc1cccc(NC(=O)Nc2ccc(Nc3ncnc4[nH]c(C)c(C)c34)cc2)c1 >= 90%
stdout: t

stdin: # bool: growth of CS(=O)(=O)O[C@@H]1C(=O)N(c2cc3c4ccccc4ccc3c3ccccc23)[C@H]1c1ccc(F)cn1 >= 90%
stdout: f

stdin: # bool: growth of Cc1ccc(-c2nc(C#N)c(S(=O)(=O)N(C)CCO)o2)cc1 >= 90%
stdout: t

stdin: # bool: growth of COc1cc(C2=NNC(c3ccc(N(C)C)cc3)C2)cc(OC)c1OC (centres undefined) >= 90%
stdout: f

stdin: # bool: growth of COC(=O)[C@]1(C)CCC[C@]2(C)[C@H]3C[C@H]4C(C(C)C)=C[C@]3(CC[C@H]21)[C@@H]1C(=O)N(CCC#N)C(=O)[C@@H]14 >= 90%
stdout: t

stdin: # bool: growth of CCSc1ccc(C2C(Br)C(=O)N2c2cc(OC)c(OC)c(OC)c2)cc1 (centres undefined) >= 90%
stdout: f

stdin: # bool: growth of C=C(C)[C@@H]1CC[C@]2(C(=O)N3CCN(C)CC3)CC[C@]3(C)[C@H](CC[C@@H]4[C@@]5(C)C/C(=C/c6ccco6)C(=O)C(C)(C)[C@@H]5CC[C@]43C)[C@@H]12 >= 90%
stdout: t

stdin: # bool: growth of CC(/C=C/c1ccccc1)=N/NC(=O)c1ccncc1 >= 90%
stdout: t

stdin: # bool: growth of CC(=O)Nc1c(C(=O)Nc2ccccc2)sc2nc3c(cc12)C(OC(C)=O)CCC3 (centres undefined) >= 90%
stdout: f

stdin: # bool: growth of COc1ccc2nc(-c3ccc(OC)c(OC)c3)cc(-c3nnc(SCC(=O)Nc4ccc(/C(C)=N\O)cc4)n3-c3ccccc3)c2c1 >= 90%
stdout: f

---

tested on: SF-295 CNS; experiment: NCI-60 one-dose screen, 48 h (100 = growth as untreated, 0 = no growth, -100 = all killed); details: 10 µM unless noted
Compounds without any hit were thinned out: in the full panel of roughly 83,000, 20% have a hit.
Answer each item with its documented growth.
Numbers only, in %.

Reference set (5 entries):
[
  {
    "compound": "COc1ccccc1Nc1nnc(-c2ccc(Cl)cc2)o1",
    "growth [%]": 40.3
  },
  {
    "compound": "COC(=O)/C=C/c1cc(OC(C)=O)c2c(c1)C(C(=O)OC)C(c1ccc(OC(C)=O)c(OC(C)=O)c1)O2 (stereo not given)",
    "growth [%]": 3.13
  },
  {
    "compound": "N#Cc1ccc(N2Cc3cc(Cl)ccc3OC3=C2C(=O)N(Cc2ccccc2)C3=O)cc1",
    "growth [%]": 69.4
  },
  {
    "compound": "Cc1cccc2nc3c(n12)C(=O)C(=O)c1ccccc1-3",
    "growth [%]": 82.7
  },
  {
    "compound": "Sc1cccc2cccnc12",
    "growth [%]": 47.1
  }
]

For each of the compounds below, note its growth.
1. COC1=CC=CC2(OC)C3(O)CCCc4cccc(c43)N3C(=O)COC132 (stereo not given)
2. O=c1c2ccccc2oc2ccc(OCCCCCCN3CCCCCC3)cc12
3. Nc1ccccc1NC(=O)c1ccc(CSc2nc(N3CCOCC3)c3cccn3n2)cc1

stdout:
[106, 38.9, 2.8]

For each of the compounds below, note its growth.
1. CCCCc1nc(Cl)c(C2CC(c3ccc(Cl)cc3)=NN2c2cc(Cl)cc(Cl)c2)[nH]1 (stereo not given)
2. COC(=O)CCc1cc(O)c2c(c1)[C@@H](C(=O)OC)[C@H](c1ccc(O)c(O)c1)O2

stdout:
[74.3, 84.7]

The origin of these recorded values is PubChem BioAssay (NCI).
